- Test system: Saccharomyces cerevisiae BY4741 SeMeCo community
- Assay procedure: z-score of subpopulation abundance vs DMSO median, subpopulation auxotrophic for LU; higher = larger share of this subpopulation than in DMSO controls
- Test parameters: 10 µM; 24 h; SM minimal medium; subpopulation (auxotrophy): LU
Counter-ions that a name gives are not always drawn.
Outcome: Condition met for z-score of subpopulation abundance of at least -0.4; Condition not met for anything lower.

CN[C@@H]1[C@@H](O)[C@@H](O[C@@H]2[C@@H](O)[C@H](O[C@H]3O[C@H](CN)[C@@H](O)[C@H](O)[C@H]3O)[C@@H](N)C[C@H]2NC(=O)[C@@H](O)CN)OC[C@]1(C)O [Isepamicin Sulphate] = Condition not met
CCN(CC)CCOC(=O)c1ccc(N)cc1 [Procaine] = Condition met
COC(=O)Nc1nc2cc(C(=O)c3ccccc3)ccc2[nH]1 = Condition met
Cc1[nH]c(=O)c(C#N)cc1-c1ccncc1 = Condition not met
O=C1CN(/N=C/c2ccc(-c3ccc([N+](=O)[O-])cc3)o2)C(=O)N1 [Dantrolene sodium hemiheptahydrate] = Condition not met
CCS(=O)(=O)CCn1c([N+](=O)[O-])cnc1C = Condition met
O=c1[nH]c(=O)n([C@H]2C[C@H](O)[C@@H](CO)O2)cc1I = Condition met
CN(Cc1cnc2nc(N)nc(N)c2n1)c1ccc(C(=O)N[C@@H](CCC(=O)O)C(=O)O)cc1 [Methotrexate disodium] = Condition not met
O=C(O[C@H]1CN2CCC1CC2)N1CCc2ccccc2[C@@H]1c1ccccc1 [Solifenacin succinate] = Condition met
c1ccc2[nH]c(-c3cscn3)nc2c1 = Condition not met
CN(C)CCc1c[nH]c2ccc(Cn3cncn3)cc12 [Rizatriptan Benzoate] = Condition met
CCCN1CCCC[C@H]1C(=O)Nc1c(C)cccc1C [Ropivacaine] = Condition not met
COc1cc(Cc2cnc(N)nc2N)cc(OC)c1OC = Condition met
COC(=O)C1=C(C)NC(C)=C(C(=O)OCCN2CCN(C(c3ccccc3)c3ccccc3)CC2)C1c1cccc([N+](=O)[O-])c1 (stereo unspecified) [Manidipine] = Condition not met
C#C[C@]1(O)CC[C@H]2[C@@H]3CCc4cc(O)ccc4[C@H]3CC[C@@]21C = Condition not met
NC(=O)[C@@H]1CC[C@@H]2CN1C(=O)N2OS(=O)(=O)O [Avibactam sodium] = Condition met
COc1ccc2cc(CCC(C)=O)ccc2c1 = Condition not met
N[C@@H](CCC(=O)O)C(=O)O [(S)-Glutamic acid] = Condition met
CC[C@H]1OC(=O)[C@H](C)[C@@H](O[C@H]2C[C@@](C)(OC)[C@@H](O)[C@H](C)O2)[C@H](C)[C@@H](O[C@@H]2O[C@H](C)C[C@H](N(C)C)[C@H]2O)[C@](C)(O)C[C@@H](C)CN(C)[C@H](C)[C@@H](O)[C@]1(C)O [Azithromycin Dihydrate] = Condition met
CC(C)COc1ccc(CNC(=O)N(Cc2ccc(F)cc2)C2CCN(C)CC2)cc1 = Condition met
CCn1cc(C(=O)O)c(=O)c2cc(F)c(N3CCNCC3)cc21 = Condition met
CCC(=O)NS(=O)(=O)c1ccc(-c2c(-c3ccccc3)noc2C)cc1 [Parecoxib] = Condition met
CC1(C)S[C@@H]2[C@H](NC(=O)[C@H](N)c3ccc(O)cc3)C(=O)N2[C@H]1C(=O)O [Amoxicillin Sodium] = Condition not met
CNCC[C@H](Oc1cccc2ccccc12)c1cccs1 [Duloxetine HCl] = Condition not met
CC1(C)S[C@@H]2[C@H](NC(=O)[C@H](N)c3ccccc3)C(=O)N2[C@H]1C(=O)O [Ampicillin sodium] = Condition met
CCCCCC(=O)O[C@]1(C(C)=O)CC[C@H]2[C@@H]3CCC4=CC(=O)CC[C@]4(C)[C@H]3CC[C@@]21C [Hydroxyprogesterone caproate] = Condition met
CC1(C)S[C@@H]2[C@H](NC(=O)C(c3ccccc3)S(=O)(=O)O)C(=O)N2[C@H]1C(=O)O (stereo partly specified) [Sulbenicillin Sodium] = Condition met
COc1cc(NS(=O)(=O)c2ccc(N)cc2)ncn1 = Condition met
CCOc1ccc(NC(C)=O)cc1 = Condition met
NCC[C@H](O)C(=O)N[C@@H]1C[C@H](N)[C@@H](O[C@H]2O[C@H](CN)[C@@H](O)[C@H](O)[C@H]2O)[C@H](O)[C@H]1O[C@H]1O[C@H](CO)[C@@H](O)[C@H](N)[C@H]1O [Amikacin disulfate] = Condition met

====

- System: Saccharomyces cerevisiae BY4741 SeMeCo community
- Assay procedure: z-score of subpopulation abundance vs DMSO median, subpopulation auxotrophic for HM; higher = larger share of this subpopulation than in DMSO controls
- Test parameters: 10 µM; 24 h; SM minimal medium; subpopulation (auxotrophy): HM
Where a name gives a salt, the structure may show the parent alone.
Outcome: fulfilled for z-score of subpopulation abundance of at least -0.1; not fulfilled for anything lower.

C[C@H](NCc1ccc(OCc2cccc(F)c2)cc1)C(N)=O [Safinamide] = fulfilled
Cc1cccc(C#Cc2ccccc2)n1 = not fulfilled
CO[C@H]1C[C@@H]2CC[C@@H](C)[C@@](O)(O2)C(=O)C(=O)N2CCCC[C@H]2C(=O)O[C@H]([C@H](C)C[C@@H]2CC[C@@H](OP(C)(C)=O)[C@H](OC)C2)CC(=O)[C@H](C)/C=C(\C)[C@@H](O)[C@@H](OC)C(=O)[C@H](C)C[C@H](C)/C=C/C=C/C=C/1C = fulfilled
COc1ccc(NS(=O)(=O)c2ccc(N)cc2)nn1 = not fulfilled
CO/N=C(\C(=O)N[C@@H]1C(=O)N2C(C(=O)O)=C(Cn3ccc(=N)n3CCO)CS[C@H]12)c1csc(N)n1 [Cefoselis Sulfate] = not fulfilled
Cc1cc(C)nc(O)n1.O=C(Nc1ccc([N+](=O)[O-])cc1)Nc1ccc([N+](=O)[O-])cc1 = not fulfilled
CCCCc1oc2ccccc2c1C(=O)c1cc(I)c(OCCN(CC)CC)c(I)c1 [Amiodarone HCl] = fulfilled
CC[C@@H]1/C=C(\C)C[C@H](C)C[C@H](OC)[C@H]2O[C@@](O)(C(=O)C(=O)N3CCCC[C@H]3C(=O)O[C@H](/C(C)=C/[C@@H]3CC[C@@H](O)[C@H](OC)C3)[C@H](C)[C@@H](O)CC1=O)[C@H](C)C[C@@H]2OC = fulfilled
CNCc1cc(-c2ccccc2F)n(S(=O)(=O)c2cccnc2)c1 [Vonoprazan Fumarate (TAK-438)] = not fulfilled
COc1cnc(NS(=O)(=O)c2ccc(N)cc2)nc1 = fulfilled
OCCN(CCO)c1nc(N2CCCCC2)c2nc(N(CCO)CCO)nc(N3CCCCC3)c2n1 = fulfilled
CCOc1cc(N)c(Cl)cc1C(=O)NCC1CN(Cc2ccc(F)cc2)CCO1 (configuration not stated) [Mosapride Citrate] = fulfilled
O=c1[nH]c(=O)n([C@H]2C[C@H](O)[C@@H](CO)O2)cc1/C=C/Br = not fulfilled
CCN(CC)CC#CCOC(=O)C(O)(c1ccccc1)C1CCCCC1 (configuration not stated) = not fulfilled
CCCCCCCCCCCCCCCC[N+](C)(C)C [Cetrimonium Bromide (CTAB)] = fulfilled
C[C@@H](O)[C@H]1C(=O)N2C(C(=O)O)=C([C@H]3CCCO3)S[C@H]12 [Faropenem Sodium] = fulfilled
CN1CCC(=C2c3ccccc3CCc3sccc32)CC1 [Pizotifen Malate] = fulfilled
OC(CCN1CCCCC1)(c1ccccc1)C1CCCCC1 (configuration not stated) [Trihexyphenidyl hydrochloride] = not fulfilled
Cc1c(S(=O)(=O)O)oc2c1C(=O)C(=O)c1c-2ccc2c1CCCC2(C)C [Tanshinone IIA sulfonate (sodium)] = not fulfilled
C=CCCCCCCCCC(=O)[O-].C=CCCCCCCCCC(=O)[O-].[Zn+2] [Zinc Undecylenate] = not fulfilled
CS(=O)(=O)c1ccc(C2=C(c3ccccc3)C(=O)OC2)cc1 = fulfilled
O=c1[nH]c2ccccc2n1CCN1CCN(c2cccc(C(F)(F)F)c2)CC1 = not fulfilled
C/C=C\c1ccc(O)c(OC)c1 = fulfilled
CN1CCN(CC(=O)N2c3ccccc3C(=O)Nc3cccnc32)CC1 [Pirenzepine dihydrochloride] = not fulfilled
CN(C)C[C@@H]1CCn2cc(c3ccccc32)C2=C(C(=O)NC2=O)c2cn(c3ccccc23)CCO1 = fulfilled
O=C(NCCO[N+](=O)[O-])c1cccnc1 = not fulfilled
N=C(N)NC(=O)c1nc(Cl)c(N)nc1N [Amiloride HCl] = fulfilled
CC1=Nc2ccc(Cl)cc2S(=O)(=O)N1 [Diazoxide] = not fulfilled
Cc1cc(O)cc(C)c1Cl = fulfilled
CC(=O)OCC[N+](C)(C)C [Acetylcholine iodide] = not fulfilled
O=C(c1ccc(OCCN2CCCCC2)cc1)c1c(-c2ccc(O)cc2)sc2cc(O)ccc12 = fulfilled
O=c1c(-c2ccc(O)cc2)coc2c([C@@H]3O[C@H](CO)[C@@H](O)[C@H](O)[C@H]3O)c(O)ccc12 = fulfilled

These data points were gathered from the supplement of paper PMC8975748.
